// reported IC50 per item
# System: MCF-7 cells (human breast adenocarcinoma)
# assay.notes: MTT cytotoxicity assay on MCF-7
# Assay type: cell-based
# test.context: MCF7, 48 h, read-out: IC50 (μM) ± SD MCF-7
Please give a number only; it is taken to be in µM.

Some solved entries appear below for comparison.
O=C(C1=CNC(=S)NN=C1)c1ccc2ccccc2c1O [Compound 7] = 10.5
COc1ccc(-n2cc(C(=O)c3ccc4ccccc4c3O)cc(C#N)c2=O)cc1 [Compound 3c] = 8.5
N#Cc1cc(C(=O)c2ccc3ccccc3c2O)cn(-c2nc3ccccc3s2)c1=O [Compound 3h] = 10.3
CCOC1Oc2c(ccc3ccccc23)-c2n[nH]cc21 (centres unmarked) [Compound 10] = 9.3
COc1cccc2c1C(=O)c1c(O)c3c(c(O)c1C2=O)C[C@@](O)(C(=O)CO)C[C@@H]3O[C@H]1C[C@H](N)[C@H](O)[C@H](C)O1 [DOXO, Doxorubicin, reference compound] = 10.3

INPUT: Hello, I am looking for reported IC50 with MCF-7 cells (human breast adenocarcinoma) for N#CCC(=O)NN=Cc1coc2c(ccc3ccccc32)c1=O [Compound 5] . Could you help?
OUTPUT: 10.7

INPUT: Request - read-out IC50 | tested on MCF-7 cells (human breast adenocarcinoma) | compound CC(=Nn1cc(C(=O)c2ccc3ccccc3c2O)cc(C#N)c1=O)c1cc2ccccc2oc1=O [Compound 3i]
OUTPUT: 9.7

INPUT: What is its IC50 for MCF-7 cells (human breast adenocarcinoma)? Entry: O=c1c(C=Nc2nc3ccccc3s2)coc2c1ccc1ccccc12 [Compound 12b]
OUTPUT: 8.9
